# pIC50 listing for each entry below
- subject.of.test: IDH1-R132H homodimer enzyme (Homo sapiens (Human), UniProt O75874, R132H)
- Sequence (O75874 whole entry R132H): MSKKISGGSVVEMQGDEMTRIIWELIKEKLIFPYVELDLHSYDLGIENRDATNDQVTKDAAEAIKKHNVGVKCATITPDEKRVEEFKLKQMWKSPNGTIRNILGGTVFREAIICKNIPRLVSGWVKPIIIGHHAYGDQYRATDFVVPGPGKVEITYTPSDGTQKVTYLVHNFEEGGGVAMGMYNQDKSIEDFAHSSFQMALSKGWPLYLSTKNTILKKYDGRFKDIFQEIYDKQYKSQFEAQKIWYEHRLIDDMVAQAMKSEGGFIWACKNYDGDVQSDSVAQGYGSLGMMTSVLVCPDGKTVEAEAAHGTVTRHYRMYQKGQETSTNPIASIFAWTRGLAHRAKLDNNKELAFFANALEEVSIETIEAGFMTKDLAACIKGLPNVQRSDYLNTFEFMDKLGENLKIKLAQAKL
- assay.method.text: In vitro assay IDH1-R132H homodimer, NADPH depletion assay with NADPH/NADP preincubation
- conditions: 5 μM NADPH and 37.5 μM NADP
pIC50: −log10 of the molar value.

Example results:
compound	pIC50
FC1(F)CCC(Nc2nc(NC3CCN(Cc4ccccc4)C3)nc(-c3cccc(C(F)(F)F)n3)n2)C1 (stereo not shown)	< 6.00
FC1(F)CCC(Nc2nc(NC3CCC(F)(F)CC3)nc(-n3cc(Cl)cn3)n2)CC1	< 6.00
CC(=O)N1CCC(Nc2nc(NC3CCC(F)(F)CC3)nc(-c3cccc(C(F)(F)F)n3)n2)CC1	< 6.00
FC1(F)CC(Nc2nc(NC3CC(F)(F)C3)nc(-c3cncc(C(F)(F)F)n3)n2)C1	> 7.30
Fc1cc(F)cc(Nc2nc(NC3CC(F)(F)C3)nc(-c3nc(C(F)(F)F)cs3)n2)c1	> 7.30
FC1(F)CCC(Nc2nc(NC3CCN(c4ccccn4)C3)nc(-c3cccc(C(F)(F)F)n3)n2)C1 (stereo not shown)	6.00 to 7.00
CC(Nc1nc(Nc2cc(F)cc(C#N)c2)nc(-n2ccc(C(F)(F)F)n2)n1)C(F)(F)F (stereo not shown)	> 7.30
N#Cc1cc(F)cc(Nc2nc(NCC3CC3)nc(-c3cccc(C(F)(F)F)n3)n2)c1	7.00 to 7.30
N#CC1(c2cc(Nc3nc(N[C@H]4CCC(F)(F)C4)nc(-n4ccc(C(F)(F)F)n4)n3)ccn2)CC1	> 7.30

Note: attention shifts to another entry.
q: For the compound FC1(F)CCC(Nc2nc(Nc3ccnc(C(F)(F)F)c3)nc(-c3cccc(C(F)(F)F)n3)n2)C1 (stereo not shown) , give its reported pIC50.
a: 7.00 to 7.30

###

- subject.of.test: IDH1 wt/IDH1 R132H heterodimer (Homo sapiens (Human), UniProt O75874, R132H)
- Sequence (O75874 whole entry R132H): as above
- Sequence (O75874 whole entry, stated change not applied): as the sequence (O75874 whole entry R132H) above, with H132R counted along it
- assay.method.text: In vitro assay for IDH1m R132H inhibitors, IDH1 wt/IDH1 R132H heterodimer, NADPH depletion (diaphorase/resazurin)
- Assay type: biochemical
- conditions: IDH1 wt/R132H heterodimer, NADPH/NADP, not saturated; read-out: IDH1 wt/R132H NADPH/NADP IC50 not saturated
pIC50: −log10 of the molar value.
quantity: pIC50

Example results:
compound	subject.of.test	pIC50
FC1(F)CCC(Nc2nc(NC3CCNC3)nc(-c3cccc(C(F)(F)F)n3)n2)C1 (stereo not shown)	IDH1 wt/IDH1 R132H heterodimer (Homo sapiens (Human), UniProt O75874, R132H)	< 6.00
FC(F)c1ccnc(-c2nc(NC3CCC(F)(F)CC3)nc(NC3CCC(F)(F)CC3)n2)n1	IDH1 wt/IDH1 R132H heterodimer (Homo sapiens (Human), UniProt O75874, R132H)	< 6.00
FC1(F)CCC(Nc2nc(NC3CCC(c4ccccc4)C3)nc(-c3cccc(C(F)(F)F)n3)n2)C1 (stereo not shown)	IDH1 wt/IDH1 R132H heterodimer (Homo sapiens (Human), UniProt O75874, R132H)	> 7.30

q: For the compound FC1(F)CCCC1Nc1nc(NC2CCCC2(F)F)nc(-c2cccc(Cl)n2)n1 (stereo not shown) , give its reported pIC50.
a: > 7.30

q: For the compound COc1cccc(-c2nc(N[C@H](C)C3CC3)nc(N[C@H](C)C3CC3)n2)n1 , give its reported pIC50.
a: 6.00 to 7.00

q: For the compound FC1(F)CCC(Nc2nc(NC3CCC(F)(F)CC3)nc(-n3cc(Cl)cn3)n2)CC1 , give its reported pIC50.
a: 6.00 to 7.00

q: For the compound FC1(F)CCC(Nc2nc(NC3CCC(F)(F)CC3)nc(-c3nc(-c4ccccc4)ns3)n2)CC1 , give its reported pIC50.
a: < 6.00

q: For the compound FC(F)(F)c1cc(Nc2nc(NCC3CC3)nc(-c3cccc(Cl)n3)n2)ccn1 , give its reported pIC50.
a: > 7.30

q: For the compound N#Cc1cc(F)cc(Nc2nc(NC3CCC(F)(F)C3)nc(-c3nc(C(F)(F)F)cs3)n2)c1 (stereo not shown) , give its reported pIC50.
a: > 7.30

Hey, just so you know, these numbers are from patent US10028961B2.
